The reported measurements were obtained from a melting point compilation (Tetko et al.; mined from patent text by program, amines drawn as free bases though some values may be those of a salt).

A collection of compounds and their measured melting point

*Q* What value of melting point has been recorded for this entry: Nc1sc2c(c1C(=O)c1ccc(-c3ccccc3)cc1)CCN(C(=O)OCc1ccccc1)C2
*A* 83 to 85 °C

*Q* What do we get for C=C(C)COc1ccc(Br)cc1CN(CC)c1ccc(C(=O)NS(=O)(=O)c2c(C)noc2C)nn1 ?
*A* 120 °C

*Q* Also CCC(CC)(CC(=O)Nc1cccc(OCc2ccc3ccc(C)cc3n2)c1)C(=O)O , if possible.
*A* 75 to 76 °C

*Q* Again, but for CC(C)n1c(=O)n(C)c(=O)c2c(SCCCO)n(C3Cc4ccccc4C3)cc21
*A* 123 to 125 °C

*Q* Lookup CC(=O)Nc1cc(OS(=O)(=O)c2ccc(C)cc2)nc(=N)n1OC(C)=O
*A* 196 to 200 °C
